- test-system: Aldehyde dehydrogenase 1A1 (Homo sapiens) (UniProt P00352)
- Sequence (P00352 whole entry, looked up): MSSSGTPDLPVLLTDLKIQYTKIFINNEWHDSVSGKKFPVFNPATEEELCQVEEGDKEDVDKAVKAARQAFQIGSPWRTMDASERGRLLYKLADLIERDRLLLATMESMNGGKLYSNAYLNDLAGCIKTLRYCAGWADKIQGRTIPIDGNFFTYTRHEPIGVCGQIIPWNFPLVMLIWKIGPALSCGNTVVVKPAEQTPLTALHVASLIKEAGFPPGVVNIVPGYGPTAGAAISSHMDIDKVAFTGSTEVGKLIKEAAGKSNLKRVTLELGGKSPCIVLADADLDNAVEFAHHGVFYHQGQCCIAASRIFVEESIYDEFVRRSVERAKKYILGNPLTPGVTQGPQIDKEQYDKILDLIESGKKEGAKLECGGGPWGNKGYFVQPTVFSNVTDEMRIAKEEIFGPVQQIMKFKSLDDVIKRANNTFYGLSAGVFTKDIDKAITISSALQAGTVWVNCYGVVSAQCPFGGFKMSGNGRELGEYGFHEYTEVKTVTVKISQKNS
- measurement-protocol: qHTS Assay for Inhibitors of Aldehyde Dehydrogenase 1 (ALDH1A1)
- protocol-conditions: Purified ALDH1A1, NADH fluorescence, propionaldehyde substrate; series mostly up to 75.3 µM
Among all 220,000 compounds or so, about 16,000 (7.3%) were called active. Not shown: some 25% with an inconclusive outcome. The call rests on the fitted dose curve; in most records, active means well fitted inhibition curve with a large enough effect (not every such curve was filed as active); inconclusive means small, poorly fitted or top-dose-only effect, or another doubt; inactive means no such curve, though single readings can be large or run the other way. The sample holds actives, similar compounds and a random draw of the others, so the mix is not that of the screen.
Mark one answer only. Choices: active, inactive

Prompt: Tell me the assay call for "CN1CCN(CC(=O)Nc2cccc([N+](=O)[O-])c2)CC1" please.
Response: inactive

Prompt: Tell me the assay call for "O=C(COC(=O)[C@H](Cc1ccccc1)NC(=O)c1cccs1)Nc1cc(F)ccc1F" please.
Response: active

Prompt: Tell me the assay call for "COc1ccc(Cl)cc1N(CC(=O)N1CCCCC1)S(C)(=O)=O" please.
Response: inactive

Prompt: Tell me the assay call for Nc1ccc(OCC(O)C[n+]2ccc(CCS(=O)(=O)[O-])cc2)cc1 (stereo unspecified) please.
Response: inactive

Prompt: Tell me the assay call for O=C(NCC(=O)N(CC1CCCO1)C(C(=O)NC1CCCCC1)c1ccccc1)c1ccco1 (stereo unspecified) please.
Response: inactive

Prompt: Tell me the assay call for "CC(=O)c1ccc(NC(=O)N[C@@H](Cc2ccccc2)C(=O)O)cc1" please.
Response: inactive

Prompt: Tell me the assay call for "Cc1cc(C)cc(NC(=O)N2CCCCCCC2)c1" please.
Response: inactive

Prompt: Tell me the assay call for "Cc1cc(NC(=O)CSc2nc3ccccc3n2CC(C)C)no1" please.
Response: inactive

Prompt: Tell me the assay call for "Cn1nc(C(F)(F)F)c2cc(C(=O)N3CCOCC3)sc21" please.
Response: inactive

Prompt: Tell me the assay call for "O=C(Nc1ccc(Cl)c(Cl)c1)N1CC=C(c2ccccc2)CC1" please.
Response: inactive

Prompt: Tell me the assay call for NC(=O)c1ccc(NC(=O)COC(=O)C(Cc2ccccc2)NC(=O)c2ccccc2)cc1 (stereo unspecified) please.
Response: active
